Hello, the source for this data is PubChem BioAssay (EPA / NIEHS), in case you need it.

Read-out: UDP glucuronosyltransferase (UGT1A6), UGT1A6 (gene 54578)
Assay: LTEA_HepaRG_UGT1A6: Life Technologies and Expression Analysis (LTEA) Assay for UDP glucuronosyltransferase (UGT1A6) using HepaRG (AID 2283539)
Details: mRNA level, 48 h; actives raise or lower the signal
Description: LTEA_HepaRG is a cell based, multiplexed-readout assay that uses HepaRG, a human liver cell line, with measurements taken at 48 hours after chemical dosing on a 96-well plate.LTEA_HepaRG_UGT1A6 is one of 102 assay component(s) measured in the LTEA HepaRG cell culture assay. It is a marker of NR mediated metabolism.Data from the assay component LTEA_HepaRG_UGT1A6 was analyzed into 1 endpoint. […]
Activity calls are given as the source filed them. Rule for the calls: active = hit-call score of the fitted dose curve at least 0.9, where 1 is the maximum; inactive = score below 0.9.
experimental.readout: AC50

Recorded results for 5 compounds are shown here.
compound	AC50
CC(C)(C)c1ccc(CSc2cnn(C(C)(C)C)c(=O)c2Cl)cc1	18.8 µM (active)
CC(C)Oc1cc(-n2nc(C(C)(C)C)oc2=O)c(Cl)cc1Cl	76.5 µM (active)
CCCCNC(=O)OCC#CI	inactive
CNC(=O)ON=CC(C)(C)SC	inactive
Cc1ccc(-c2c(Cl)nc(C#N)n2S(=O)(=O)N(C)C)cc1	27.4 µM (active)

Consider CCOc1cc(Oc2ccc(C(F)(F)F)cc2Cl)ccc1[N+](=O)[O-] . Its measured AC50 is inactive

Consider CC1COC(Cn2cncn2)(c2ccc(Oc3ccc(Cl)cc3)cc2Cl)O1 (centres undefined) . Its measured AC50 is 63.9 µM (active)

Consider CCNc1nc(Cl)nc(NC(C)C)n1 . Its measured AC50 is inactive

Consider COc1cnc(OC)n2nc(NS(=O)(=O)c3c(OCC(F)F)cccc3C(F)(F)F)nc12 . Its measured AC50 is inactive

Consider COc1nc(NC(C)C)nc(NC(C)C)n1 . Its measured AC50 is inactive

Consider CNC(=S)S . Its measured AC50 is inactive

Consider CCCCNC(=O)n1c(NC(=O)OC)nc2ccccc21 . Its measured AC50 is inactive

Consider COC(=O)c1ccccc1C(=O)OC . Its measured AC50 is inactive

Consider CN(C)C(=S)SSC(=S)N(C)C . Its measured AC50 is inactive

Consider CS/C(C)=N/OC(=O)N(C)SN(C)C(=O)O/N=C(\C)SC . Its measured AC50 is inactive

###

Read-out: Cytochrome P450 (CYP1A1), CYP1A1 (gene 1543)
Test: LTEA_HepaRG_CYP1A1: Life Technologies and Expression Analysis (LTEA) Assay for Cytochrome P450 (CYP1A1) using HepaRG (AID 2283454)
Conditions: mRNA level, 48 h; actives raise or lower the signal
Procedure: LTEA_HepaRG is a cell based, multiplexed-readout assay that uses HepaRG, a human liver cell line, with measurements taken at 48 hours after chemical dosing on a 96-well plate.LTEA_HepaRG_CYP1A1 is one of 102 assay component(s) measured in the LTEA HepaRG cell culture assay. It is a marker of NR mediated metabolism.Data from the assay component LTEA_HepaRG_CYP1A1 was analyzed into 1 endpoint. […]
Active and inactive are the calls of the source. Rule for the calls: active = hit-call score of the fitted dose curve at least 0.9, where 1 is the maximum; inactive = score below 0.9.
Your answer must be one of the following: t (active), f (inactive)

Which outcome did this test record for the molecule COP(=S)(OC)Oc1nc(Cl)c(Cl)cc1Cl ?
t

Which outcome did this test record for the molecule COC(=O)C=C(C)OP(=O)(OC)OC ?
f

Which outcome did this test record for the molecule CCOC(=O)C(Cl)Cc1cc(-n2nc(C)n(C(F)F)c2=O)c(F)cc1Cl (centres undefined) ?
t

Which outcome did this test record for the molecule O=C(Nc1ccccc1)Nc1ccnc(Cl)c1 ?
t

###

read-out: Potassium channel subfamily K member 1 (KCNK1), KCNK1 (gene 3775); test: LTEA_HepaRG_KCNK1: Life Technologies and Expression Analysis (LTEA) Assay for Potassium channel subfamily K member 1 (KCNK1) using HepaRG (AID 2283511); settings: mRNA level, 48 h; actives raise or lower the signal
Active and inactive are the calls of the source. How the source made its calls: active means hit-call score of the fitted dose curve at least 0.9, where 1 is the maximum; inactive means score below 0.9.
Your answer must be one of the following: label 1 (active), label 0 (inactive)

Which outcome did this test record for the compound Cc1c(F)c(F)c(COC(=O)C2C(/C=C(\Cl)C(F)(F)F)C2(C)C)c(F)c1F (stereo not given) ?
label 0

Which outcome did this test record for the compound CCNc1nc(Cl)nc(NC(C)C)n1 ?
label 0

Which outcome did this test record for the compound O=C(O)c1nc(Cl)ccc1Cl ?
label 0

Which outcome did this test record for the compound O=C(O)COc1nc(Cl)c(Cl)cc1Cl ?
label 0

Which outcome did this test record for the compound C=CCC1=C(C)[C@@H](OC(=O)[C@@H]2[C@@H](C=C(C)C)C2(C)C)CC1=O ?
label 0

Which outcome did this test record for the compound COc1nc(NC(C)C)nc(NC(C)C)n1 ?
label 0

Which outcome did this test record for the compound CC(C)(C)c1ccc(CSc2cnn(C(C)(C)C)c(=O)c2Cl)cc1 ?
label 0

Which outcome did this test record for the compound CNC(=S)S ?
label 0

Which outcome did this test record for the compound CCON=C(CC)C1=C(O)CC(c2c(C)cc(C)cc2C)CC1=O (stereo not given) ?
label 0

Which outcome did this test record for the compound CCCC1COC(Cn2cncn2)(c2ccc(Cl)cc2Cl)O1 (stereo not given) ?
label 0

Which outcome did this test record for the compound CC(C)Oc1cc(-n2nc(C(C)(C)C)oc2=O)c(Cl)cc1Cl ?
label 0

Which outcome did this test record for the compound N#CC(CCc1ccc(Cl)cc1)(Cn1cncn1)c1ccccc1 (stereo not given) ?
label 1

Which outcome did this test record for the compound COC(=O)c1ccccc1C(=O)OC ?
label 0

Which outcome did this test record for the compound CS/C(C)=N/OC(=O)N(C)SN(C)C(=O)O/N=C(\C)SC ?
label 0

Which outcome did this test record for the compound CC(Oc1ccc(Cl)cc1Cl)C(=O)O (stereo not given) ?
label 0

###

biological target: Estrogen receptor (Homo sapiens); test: OT_ERa_GFPERaERE_0120: Odyssey Thera (OT) 2-hour HeLa Transcription Induction Assay for Estrogen Receptor (AID 2283382)
Calls of active or inactive are those of the source. How the source made its calls: active means hit-call score of the fitted dose curve at least 0.9, where 1 is the maximum; inconclusive means response in the unintended direction; inactive means score below 0.9.
experimental.readout: outcome

compound	observed
Cc1c(F)c(F)c(COC(=O)C2C(/C=C(\Cl)C(F)(F)F)C2(C)C)c(F)c1F (stereo not drawn)	inactive
CCCCC(CC)COC(=O)c1ccccc1C(=O)OCC(CC)CCCC (stereo not drawn)	inactive
O=C(Nc1ccccc1)Nc1ccnc(Cl)c1	inactive

###

read-out: Macrophage colony-stimulating factor (MCSF), CSF1 (gene 1435); experiment: BSK_hDFCGF_MCSF: BioMAP Diversity Plus: hDFCGF Assay for Macrophage colony-stimulating factor (MCSF) Biomarker Activity (AID 2283060); details: primary human foreskin fibroblasts; actives raise or lower the signal
Activity calls are given as the source filed them. How the source made its calls: active means hit-call score of the fitted dose curve at least 0.9, where 1 is the maximum; inactive means score below 0.9.
Your answer must be one of the following: Yes (active), No (inactive)

Which outcome did this test record for the molecule CCCCNC(=O)n1c(NC(=O)OC)nc2ccccc21 ?
No

Which outcome did this test record for the molecule CO/C=C(/C(=O)OC)c1ccccc1Oc1cc(Oc2ccccc2C#N)ncn1 ?
No

Which outcome did this test record for the molecule COc1cnc(OC)n2nc(NS(=O)(=O)c3c(OCC(F)F)cccc3C(F)(F)F)nc12 ?
No

Which outcome did this test record for the molecule O=C(Nc1ccccc1)Nc1ccnc(Cl)c1 ?
No

Which outcome did this test record for the molecule CS/C(C)=N/OC(=O)N(C)SN(C)C(=O)O/N=C(\C)SC ?
No

Which outcome did this test record for the molecule COc1ccc(C(c2ccc(OC)cc2)C(Cl)(Cl)Cl)cc1 ?
Yes

Which outcome did this test record for the molecule CNC(=O)ON=CC(C)(C)SC ?
No

Which outcome did this test record for the molecule N#Cc1nn(-c2c(Cl)cc(C(F)(F)F)cc2Cl)c(N)c1S(=O)C(F)(F)F (stereo not drawn) ?
No

Which outcome did this test record for the molecule COP(=S)(OC)Oc1nc(Cl)c(Cl)cc1Cl ?
Yes

Which outcome did this test record for the molecule CCOC(=O)CC(SP(=S)(OC)OC)C(=O)OCC (stereo not drawn) ?
No

Which outcome did this test record for the molecule OC(c1ccc(Cl)cc1)(c1cncnc1)c1ccccc1Cl (stereo not drawn) ?
No

Which outcome did this test record for the molecule CC1=C(C(=O)Nc2ccccc2)SCCO1 ?
No

Which outcome did this test record for the molecule CCOC(=O)C(Cl)Cc1cc(-n2nc(C)n(C(F)F)c2=O)c(F)cc1Cl (stereo not drawn) ?
No

###

read-out: adenosine kinase (ADK) gene, ADK (gene 132); assay: LTEA_HepaRG_ADK: Life Technologies and Expression Analysis (LTEA) Assay for adenosine kinase (ADK) gene using HepaRG (AID 2283471); settings: mRNA level, 48 h; actives raise or lower the signal
Calls of active or inactive are those of the source. The calls were made as follows: active = hit-call score of the fitted dose curve at least 0.9, where 1 is the maximum; inactive = score below 0.9.
Your answer must be one of the following: class 1 = active, class 0 = inactive

Which outcome did this test record for the compound O=C(O)COc1nc(Cl)c(Cl)cc1Cl ?
class 0

Which outcome did this test record for the compound CCOP(=S)(OCC)SCn1c(=O)oc2cc(Cl)ccc21 ?
class 0

Which outcome did this test record for the compound COP(=S)(OC)Oc1nc(Cl)c(Cl)cc1Cl ?
class 0

Which outcome did this test record for the compound CCCCOC(=O)c1ccccc1C(=O)OCCCC ?
class 0

Which outcome did this test record for the compound COP(N)(=O)SC (centres undefined) ?
class 0

Which outcome did this test record for the compound O=C(Nc1ccccc1)Nc1ccnc(Cl)c1 ?
class 1

Which outcome did this test record for the compound C#CCOS(=O)OC1CCCCC1Oc1ccc(C(C)(C)C)cc1 (centres undefined) ?
class 1

Which outcome did this test record for the compound CNC(=S)S ?
class 0

Which outcome did this test record for the compound N#CC(CCc1ccc(Cl)cc1)(Cn1cncn1)c1ccccc1 (centres undefined) ?
class 0

Which outcome did this test record for the compound N#Cc1cc(Br)c(O)c(Br)c1 ?
class 1

Which outcome did this test record for the compound OC(c1ccc(Cl)cc1)(c1cncnc1)c1ccccc1Cl (centres undefined) ?
class 0

Which outcome did this test record for the compound N#Cc1nn(-c2c(Cl)cc(C(F)(F)F)cc2Cl)c(N)c1S(=O)C(F)(F)F (centres undefined) ?
class 0

Which outcome did this test record for the compound Cc1c(F)c(F)c(COC(=O)C2C(/C=C(\Cl)C(F)(F)F)C2(C)C)c(F)c1F (centres undefined) ?
class 0

Which outcome did this test record for the compound CCNc1nc(Cl)nc(NC(C)C)n1 ?
class 0

Which outcome did this test record for the compound COc1ccc(C(c2ccc(OC)cc2)C(Cl)(Cl)Cl)cc1 ?
class 0

Which outcome did this test record for the compound C=CC1(C)OC(=O)N(c2cc(Cl)cc(Cl)c2)C1=O (centres undefined) ?
class 0

Which outcome did this test record for the compound COC(=O)C(C)Oc1ccc(Oc2ccc(Cl)cc2Cl)cc1 (centres undefined) ?
class 0

Which outcome did this test record for the compound CCc1nn(C)c(C(=O)NCc2ccc(C(C)(C)C)cc2)c1Cl ?
class 1

Which outcome did this test record for the compound CC(C)Oc1cc(-n2nc(C(C)(C)C)oc2=O)c(Cl)cc1Cl ?
class 0
